Numbers sourced from ChEMBL document CHEMBL1201862.

Quick list: GI50 per entry.
test system: HT-29; assay: NCI tumour cell line growth inhibition, 48 h
Activity calls are given as the source filed them. Rule as the data show it: active = GI50 up to about 1.1 µM and inactive = higher.
MEASURE NAME: GI50

[[record]]
molecule = "CC(C)(C)C1=C(Br)C(Br)(C(C)(C)C)OP1(=O)c1ccccc1 (stereo not given)"
target_system = "HT-29"
measure_name = "GI50"
result_value = "> 100 µM (inactive)"

[[record]]
molecule = "CC(C)CNc1nc(N)nc(O)c1NC=O"
target_system = "HT-29"
measure_name = "GI50"
result_value = "> 100 µM (inactive)"

[[record]]
molecule = "O=C(Cc1ccccc1)N/N=C(/CCN1CCCC1)CC(c1ccccc1)c1c(O)c2ccccc2oc1=O (stereo not given)"
target_system = "HT-29"
measure_name = "GI50"
result_value = "75.9 µM (inactive)"

[[record]]
molecule = "O=C(O)C1C2C=CC(O2)C1C(=O)NCc1ccccn1 (stereo not given)"
target_system = "HT-29"
measure_name = "GI50"
result_value = "> 100 µM (inactive)"

[[record]]
molecule = "Cc1ccccc1NC(=O)C(=O)CC(=O)c1c(C)[n+]([O-])c2ccccc2[n+]1[O-]"
target_system = "HT-29"
measure_name = "GI50"
result_value = "> 100 µM (inactive)"


---

system: SF-295; test: NCI tumour cell line growth inhibition, 48 h
Active and inactive are the calls of the source. No stated cut-off is given here; in the data, active = GI50 up to about 1.1 µM and inactive = higher.
Outcomes: active, inactive

[[record]]
compound = "NC(=O)c1ccc(NS(=O)(=O)c2ccc(N)cc2)nc1"
class = "inactive"

[[record]]
compound = "CC1=C(O)C(=O)C2C(=O)C1C(C)C2c1ccccc1 (stereo not drawn)"
class = "inactive"

[[record]]
compound = "CCOP(=O)(CN=C(c1ccccc1)c1ccccc1)OCC"
class = "inactive"

[[record]]
compound = "O=C1c2cc(Cl)ccc2N=C(NCCCl)C2CSCN12 (stereo not drawn)"
class = "inactive"

[[record]]
compound = "O=[N+]([O-])c1ccc(-c2cnc3ccccn23)cc1"
class = "inactive"

[[record]]
compound = "COC(=O)C(/C(=N/N)C(=O)Nc1cc(Cl)c(Cl)cc1Cl)c1nc2ccc(Cl)cc2nc1O (stereo not drawn)"
class = "inactive"

[[record]]
compound = "Cc1cccc2nc3cc(O)cc(O)c3c(O)c12"
class = "inactive"

[[record]]
compound = "O=S(=O)(N/C(=N\\O)Nc1ccc(Cl)cc1)c1cc(C(F)(F)F)cc(C(F)(F)F)c1"
class = "inactive"

[[record]]
compound = "CC1=CP(=O)(c2c(C(C)C)cc(C(C)C)cc2C(C)C)CCC1Cl (stereo not drawn)"
class = "inactive"

[[record]]
compound = "COc1ccc(C2c3cc4c(cc3OC(NCCO)C2C)OCO4)cc1 (stereo not drawn)"
class = "inactive"

[[record]]
compound = "CCCCOC(=O)C1C2CCC(O2)C1C(=O)OCCCC (stereo not drawn)"
class = "inactive"

[[record]]
compound = "CCOC(=O)c1cn(-c2ccccc2)c(=S)n2c1nc1ccccc12"
class = "inactive"

[[record]]
compound = "CC(=O)NC(Cc1c[nH]cn1)C(=O)N1CCCC1C(N)=O (stereo not drawn)"
class = "inactive"

[[record]]
compound = "CC(CC(=O)O)(CC(=O)O)c1ccccc1"
class = "inactive"

[[record]]
compound = "c1ccc2c(c1)NCc1cc3ccccc3nc1O2"
class = "inactive"

[[record]]
compound = "CCCNC(=O)Nc1ccc2c(c1)Cc1cc(N(CCCl)CCCl)ccc1-2"
class = "inactive"

[[record]]
compound = "COC(=O)/C=C(\\C)C(=O)N(C)c1ccccc1I"
class = "inactive"

[[record]]
compound = "CCC(=O)NC(NNS(=O)(=O)c1ccc(C)cc1)(C(F)(F)F)C(F)(F)F"
class = "inactive"

[[record]]
compound = "COc1ccc(-c2cc(O)c3cc4c(cc3n2)OCO4)cc1OC"
class = "inactive"

[[record]]
compound = "COc1cc(COC(=O)N2CC=CC2C(=O)O)c([N+](=O)[O-])cc1OC (stereo not drawn)"
class = "inactive"

[[record]]
compound = "CC(Cc1ccc(O)cn1)(NC(=O)c1ccccc1)C(=O)O (stereo not drawn)"
class = "inactive"

[[record]]
compound = "Nc1ncnc2nc(N3CCN(CCO)CC3)[nH]c12"
class = "inactive"

[[record]]
compound = "COc1ccc(/C=C\\c2cc(OC)c(OC)c(OC)c2)cc1OC(=O)CC(N)C(=O)O (stereo not drawn)"
class = "active"


---

test system: UACC-62; assay: NCI tumour cell line growth inhibition, 48 h
Active and inactive are the calls of the source. Cut-off read from the data, not from the text of the source: active = GI50 up to about 1.1 µM and inactive = higher. Where a SMILES comes first, the peptide text is derived from it. The star is where a group is joined. Cbz = O=C(OCc1ccccc1)*
GI50 values by entry
MEASURE NAME: GI50

[[record]]
molecule = "CCSc1cc2c(cc1O)CC[C@@H]1[C@@H]2CC[C@]2(C)[C@@H](O)CC[C@@H]12"
measure_name = "GI50"
result_value = "11.2 µM (inactive)"

[[record]]
molecule = "CCOC(=O)CCC(NC(=O)CNC(=O)CNC(=O)C(CCC(=O)OCC)NC(=O)C(CCC(=O)OCC)NC(=O)C(CCC(=O)OCC)NC(=O)OCc1ccccc1)C(=O)NC(CCC(=O)OCC)C(=O)NC(CCC(=O)OCC)C(=O)OCC (stereo not drawn) (Cbz-E(OEt)E(OEt)E(OEt)GGE(OEt)E(OEt)E(OEt)-OEt; configuration not given here)"
measure_name = "GI50"
result_value = "> 75 µM (inactive)"

[[record]]
molecule = "Cn1c(=O)c(C(=O)NC(=O)OCc2ccccc2)cn(CCSCCOC(=O)NCCCCCCNC(=O)OCCSCCn2cc(C(=O)NC(=O)OCc3ccccc3)c(=O)n(C)c2=O)c1=O"
measure_name = "GI50"
result_value = "> 100 µM (inactive)"


---

system: NCI-H460; test: NCI tumour cell line growth inhibition, 48 h
Activity calls are given as the source filed them. Cut-off read from the data, not from the text of the source: active = GI50 up to about 1.1 µM and inactive = higher.
MEASURE NAME: GI50

[[record]]
compound = "CC(=O)OCCOCNC(=S)N/N=C(\\C)c1cccs1"
target_system = "NCI-H460"
measure_name = "GI50"
result_value = "> 100 µM (inactive)"

[[record]]
compound = "Nc1nc(NNc2cccc(F)c2)cc(=O)[nH]1"
target_system = "NCI-H460"
measure_name = "GI50"
result_value = "44 µM (inactive)"

[[record]]
compound = "O=[N+]([O-])c1ccc(-c2cnc3ccccn23)cc1"
target_system = "NCI-H460"
measure_name = "GI50"
result_value = "> 100 µM (inactive)"

[[record]]
compound = "C[C@]12CCC(=O)C=C1CC[C@@H]1C2CC[C@]2(C)c3nn(-c4ccccc4)nc3CC12 (stereo partly specified)"
target_system = "NCI-H460"
measure_name = "GI50"
result_value = "> 100 µM (inactive)"

[[record]]
compound = "CN(C)c1ccc(C2CC(=O)CC(c3ccc(N(C)C)cc3)C23C(=O)NC(=O)NC3=O)cc1 (stereo unspecified)"
target_system = "NCI-H460"
measure_name = "GI50"
result_value = "> 25 µM (inactive)"

[[record]]
compound = "Cc1[nH]c(-c2ccccc2)c(-c2ccc(Cl)cc2)c1C(=O)ONC(=O)c1ccccc1"
target_system = "NCI-H460"
measure_name = "GI50"
result_value = "2.11 µM (inactive)"

[[record]]
compound = "N#Cc1ccc(C2SCc3nc4ccccc4n32)cc1 (stereo unspecified)"
target_system = "NCI-H460"
measure_name = "GI50"
result_value = "> 100 µM (inactive)"

[[record]]
compound = "Cc1cccc2nc3cc(O)cc(O)c3c(O)c12"
target_system = "NCI-H460"
measure_name = "GI50"
result_value = "> 10 µM (inactive)"

[[record]]
compound = "OC(O)(C(F)(F)F)C(F)(F)F"
target_system = "NCI-H460"
measure_name = "GI50"
result_value = "> 100 µM (inactive)"

[[record]]
compound = "Cc1c(Cl)c(=O)oc2cc(OCC(=O)c3ccccc3)ccc12"
target_system = "NCI-H460"
measure_name = "GI50"
result_value = "> 100 µM (inactive)"

[[record]]
compound = "Cn1c(COC(=O)NC2CCCCC2)c(COC(=O)NC2CCCCC2)c2ccc3ccccc3c21"
target_system = "NCI-H460"
measure_name = "GI50"
result_value = "3.01 µM (inactive)"


---

system: HCT-15
Measured GI50, listed per entry.
MEASURE NAME: GI50

[[record]]
compound = "COc1c(-c2ccc3c(c2)OCO3)oc2cc3c(c(OC)c2c1=O)OCO3"
measure_name = "GI50"
result_value = "30.8 µM"

[[record]]
compound = "NC(=O)/C=C/C(=O)O"
measure_name = "GI50"
result_value = "> 5000 µM"

[[record]]
compound = "O=C(c1nsc(Cl)c1Cl)N1CCCCC1"
measure_name = "GI50"
result_value = "> 100 µM"

[[record]]
compound = "CCOC(=O)c1cn(-c2ccccc2)c(=S)n2c1nc1ccccc12"
measure_name = "GI50"
result_value = "41.5 µM"

[[record]]
compound = "CCCNC(=O)Nc1ccc2c(c1)Cc1cc(N(CCCl)CCCl)ccc1-2"
measure_name = "GI50"
result_value = "16.5 µM"

[[record]]
compound = "CC(=O)O[C@H]1C[C@@H](OC(C)=O)[C@@](C)(O)[C@@H]2[C@@H](OC(C)=O)[C@@]3(O)[C@H](/C=C(/CCl)[C@H]4O[C@H]4[C@@H](OC(C)=O)[C@@]12C)OC(=O)[C@@H]3C"
measure_name = "GI50"
result_value = "> 25 µM"

[[record]]
compound = "Cc1ccc2c(c1)CC1(Cc3cc(C)ccc3C1=O)C2=O"
measure_name = "GI50"
result_value = "> 100 µM"

[[record]]
compound = "N/C=N/S(=O)(=O)c1ccc(NC(=O)COC(=O)c2cccc3c(=O)c4ccccc4[nH]c23)cc1"
measure_name = "GI50"
result_value = "> 100 µM"

[[record]]
compound = "COc1ccc(/C=N/n2c(-c3ccccc3)n[nH]c2=O)c(OC)c1"
measure_name = "GI50"
result_value = "> 100 µM"

